- Tested on: CCRIS mutagenicity, Ames/micronucleus/aberration tests
- test: CCRIS mutagenicity studies
- test_context: Test System: AMES SALMONELLA TYPHIMURIUM; Strain/Indicator: TA1537; Metabolic Activation: RAT, LIVER, S-9, PHENOBARBITAL AND 5,6-BENZOFLAVONE; Method: PREINCUBATION
- Source text: The CCRIS database contains chemical records with carcinogenicity, mutagenicity, tumor promotion, and tumor inhibition test results. It was developed by the National Cancer Institute (NCI). Data are derived from studies cited in primary journals, current awareness tools, NCI reports, and other sources. Test results have been reviewed by experts in carcinogenesis and mutagenesis. CCRIS provides historical information from the years 1985 - 2011. It is no longer updated. […]
Activity calls are given as the source filed them. No rule for the calls is given here.
Classes used: t (active), f (inactive)

molecule="CC(=O)Oc1cc(C=O)cc2c1C(COC(N)=O)C1(OC(C)=O)ON2CC2C1N2C(C)=O (centres undefined)" category=f
molecule=NC1=CC(=O)C(=O)c2ccccc21 category=t
molecule=CC(C)=CCC1=C(O)c2ccccc2C(=O)C1=O category=f
molecule=C=C1/C(=C\C=C2/CCC[C@]3(C)[C@@H]([C@H](C)CC[C@@H](O)C(C)C)CC[C@@H]23)C[C@@H](O)C[C@@H]1O category=f

* * *

- Tested on: CCRIS mutagenicity, Ames/micronucleus/aberration tests
- test: CCRIS mutagenicity studies
- test_context: Test System: AMES SALMONELLA TYPHIMURIUM; Strain/Indicator: TA98; Metabolic Activation: RAT, LIVER, S-9, AROCLOR 1254; Method: STANDARD PLATE
Active and inactive are the calls of the source. The rule behind the calls is not given here.
Classes used: active, inactive

molecule=O=C1CCC(=O)N1c1ccc(Cl)cc1 category=inactive
molecule=COC(=O)CCC(=O)OC category=inactive
molecule=O=S(=O)(Oc1ccc(Cl)cc1Cl)c1cccc2cccnc12 category=active
molecule="CCCCCCCCCC/C=C/C1CC(=O)OC1=O (stereo not given)" category=inactive
molecule=Cl/C=C/CCl category=active
molecule=N=c1ccc2nc3ccc(N)cc3sc-2c1 category=active
molecule=CCOC(=O)c1[nH]c2ccccc2c1N=Cc1ccc(C)cc1 category=inactive
molecule=COc1ccc(CN(CC[N+](C)(C)[O-])c2ccccn2)cc1 category=inactive
molecule="CC(C)CC(NC(=O)COc1ccc(Cl)cc1Cl)C(=O)O (stereo not given)" category=inactive
molecule=O=C1c2ccccc2-c2ccc([N+](=O)[O-])cc21 category=active
molecule=CCCCOCC(=O)O category=inactive
molecule=ClCCl category=active
molecule=Cc1ccc(N)c(S(=O)(=O)O)c1 category=inactive
molecule=c1ccc2cc3cc4ccccc4cc3cc2c1 category=active
molecule=Cc1ccccc1NS(=O)(=O)c1cccc2cccnc12 category=inactive
molecule=COc1cc(N=Nc2ccccc2)ccc1N category=active
molecule=COc1cc(N)cc(OC)c1N category=inactive
molecule=CCCCS(=O)(=O)n1ncc(Cl)c(Cl)c1=O category=inactive
molecule=O=C(O)Cc1c[nH]c2ccccc12 category=inactive
molecule=Nc1c(Br)cc([N+](=O)[O-])cc1[N+](=O)[O-] category=active
molecule=C[n+]1cccc(C(=O)[O-])c1 category=inactive
molecule=CC(C)=CCC1=C(O)c2ccccc2C(=O)C1=O category=inactive
molecule=N#CC(Cl)Cl category=active
molecule=Nc1ccc2c(c1)Cc1cc(N)ccc1-2 category=active
molecule=Cc1ccc2nc3c(ccc4ccccc43)c(C)c2c1 category=active
molecule=COc1cc2c(c(OC)c1OC)-c1ccc(OC)c(=O)cc1[C@@H](NC(C)=O)CC2 category=inactive
molecule=CC(=O)Nc1ccc(C(=O)[C@H]2O[C@H]2c2ccccc2)cc1 category=inactive
molecule=CN(C)c1ccc2nc3ccc(=[N+](C)C)cc-3sc2c1 category=active
molecule=CC(=O)[CH-]C(=O)c1ccccc1.CC(=O)[CH-]C(=O)c1ccccc1.CC[O-].CC[O-].[Ti+4] category=inactive
molecule=Nc1ccc(N=Nc2ccc(N)cc2)cc1 category=active
molecule=CCCCCCCCCCCC(=O)OCCS(=O)(=O)O category=inactive
molecule=C[C@]12C=CC3=C4CCC(=O)C=C4CC[C@H]3[C@@H]1CC[C@H]2O category=inactive
molecule=O=S(O)S(=O)(=O)O category=inactive
molecule=[O-]/[N+](=N\O)c1ccccc1 category=inactive
molecule="CCOC(=O)C1OC1c1ccccc1 (stereo not given)" category=inactive
molecule=CN1CC[C@]23c4c5ccc(O)c4O[C@H]2[C@@H](O)C=C[C@H]3[C@H]1C5 category=inactive
molecule=O=C(O)/C=C/c1ccc(O)c(O)c1 category=inactive
molecule=Cl/C=C(/Cl)c1c(Cl)c(Cl)c(Cl)c(Cl)c1Cl category=inactive
molecule=NCCNCCN category=inactive
molecule=CN(C)N=O category=inactive
